Tested on: SR leukemia
Procedure details: NCI-60 one-dose screen, 48 h (100 = growth as untreated, 0 = no growth, -100 = all killed)
Assay setup: 10 µM
About 83,000 compounds went through this panel and 20% of them were active in at least one assay; those are over-represented in the sample as a whole.
Label Satisfied when growth is at or above 60%; anything below gets Not satisfied.

Cc1ccc(/C=C2\CN(Cc3cn(CCNc4ccnc5cc(Cl)ccc45)nn3)C/C(=C\c3ccc(C)cc3)C2=O)cc1 ... Not satisfied
CC(=O)c1ccc(NCn2nc(-c3ccc(Cl)cc3)oc2=S)cc1 ... Satisfied
Fc1cc(-c2ncc(-c3cc(F)c(F)c(F)c3)c(NC3CCCCCC3)n2)cc(F)c1F ... Satisfied
COc1ccc(-c2nnc(SCC(=O)c3ccccc3)o2)cc1 ... Satisfied
C#CCNCCN1C(=O)c2ccc3c4c(ccc(c24)C1=O)C(=O)N(CCNCC#C)C3=O ... Not satisfied

QUERY: Record "N#C/C(=C/c1cc([N+](=O)[O-])ccc1Cl)C(N)=O" ; criterion: growth no lower than 60%. Met?
RESULT: Not satisfied

QUERY: Is reported growth greater than or equal to 60% here: OC(CNC1CCCC1)Cn1c2ccccc2c2ccccc21 (centres undefined)
RESULT: Not satisfied

QUERY: Kindly determine if growth recorded for "COc1ccc(-c2csc(NC(=O)CO[N+](=O)[O-])n2)cc1" is above or exactly 60%.
RESULT: Satisfied

QUERY: Hi team, for "COc1ccc(-c2cn[nH]c2-c2cc(OC)c(OC)c(OC)c2)cc1" , is the recorded growth at or above 60%?
RESULT: Not satisfied

QUERY: Does the molecule "COc1ccc(C(=O)c2sc3nc(-c4cccs4)ccc3c2N)cc1OC" have recorded growth that is 60% or more?
RESULT: Not satisfied

QUERY: Form field: growth at least 60%? Entry: "COc1cc2c3c(cccc3c1)C(=O)N(CCN1CCCC1)C2=O"
RESULT: Not satisfied

QUERY: Form field: growth at least 60%? Entry: "CC(C)OCc1cc(CN2CCN(c3cccc(Cl)c3)CC2)c(O)c2ncccc12"
RESULT: Not satisfied

QUERY: Quick check, growth >= 60%? "Cc1cc(C(C)(C)CC(C)(C)C)ccc1OCCOCC[N+](C)(C)Cc1ccccc1"
RESULT: Not satisfied

QUERY: # check: growth of CCCCN(CCCC)c1ccc(C(=NC(C)CCCN(CC)CC)c2ccc(N(C)C)cc2)cc1 (centres undefined) is greater than or equal to 60%
RESULT: Not satisfied

QUERY: In plain terms: is recorded growth at least 60% for "CCCCNC(=O)Oc1ccc(/C(=C(\C)c2ccc(OC)cc2)c2ccc(OCCN3CCCCC3)cc2)cc1" ?
RESULT: Not satisfied

QUERY: Exam item: decide whether the reported growth for "O=C(Nc1cccc(Cl)c1)Nc1cc2ncncc2cc1OCc1cccc(F)c1" is at least 60%.
RESULT: Not satisfied

QUERY: hey, is growth for this one >= 60%? "COC(=O)c1cnc2c(c1)Oc1ccc(Cl)cc1-c1cc(C)nn1-2"
RESULT: Satisfied

QUERY: growth >= 60% for "COc1cc(-c2cc(-c3cc(OC)c(OC)c(OC)c3)nc3nc(N)[nH]c(=O)c23)ccc1Oc1ccnc2cc(Cl)ccc12" ?
RESULT: Not satisfied

QUERY: Is growth for "Oc1ccccc1-c1nnc(Cn2c(Cc3cccc4ccccc34)nc3ccccc32)o1" at or above 60%?
RESULT: Satisfied

QUERY: Record CCCCCC(=O)N1c2ccccc2NC2=C(C(=O)CC(c3ccc(OC)c(OC)c3)C2)C1c1ccc(C(F)(F)F)cc1 (centres undefined) ; criterion: growth no lower than 60%. Met?
RESULT: Not satisfied

QUERY: Hi team, for "O=NN(CC(=O)N/N=C/C=C\c1ccccc1)CC(=O)N/N=C/C=C/c1ccccc1" , is the recorded growth at or above 60%?
RESULT: Satisfied

QUERY: Reported growth reaches at least 60% for "Nc1nc(SCC#CCCl)c2[nH]cnc2n1" ?
RESULT: Not satisfied

The values you see were collected from PubChem BioAssay (NCI).
